test: Solubility in demineralised water (photometric); type: physicochemical; conditions: demineralised water, 60 min stirring at 20° C.

compound | unitString | solubility thermodynamic at 60 min
CCOC(=O)Nc1ccc(NCc2ccc(F)cc2)nc1N.CS(=O)(=O)O [Flupirtine mesilate] | µg/mL | 52
CCOC(=O)Nc1ccc(NCc2ccc(F)cc2)nc1N.O=S(=O)(O)c1ccccc1 [Flupirtine besilate] | µg/mL | 32

----------
Readings of Bulk density for the listed compounds
assay: Bulk density of flupirtine salts; type: physicochemical; conditions: volume per 100.0 g of sample material

compound | unitString | Bulk density
CCOC(=O)Nc1ccc(NCc2ccc(F)cc2)nc1N.O=C(O)/C=C\C(=O)O [Maleate Form B, reference compound] | ml/100 g substance | 1634
CCOC(=O)Nc1ccc(NCc2ccc(F)cc2)nc1N.Cc1ccc(S(=O)(=O)O)cc1 [Flupirtine tosilate] | ml/100 g substance | 420
CCOC(=O)Nc1ccc(NCc2ccc(F)cc2)nc1N.CS(=O)(=O)O [Flupirtine mesilate] | ml/100 g substance | 478
CCOC(=O)Nc1ccc(NCc2ccc(F)cc2)nc1N.O=S(=O)(O)c1ccccc1 [Flupirtine besilate] | ml/100 g substance | 358

From: patent US8222282B2
